src = ChEMBL document CHEMBL1177869

Assay Name: Induction of [14C]-oleic acid oxidation in human differentiated skeletal muscle cells assessed as accumulation of oxidized [14C]-oleic acid after 4 hrs by liquid scintillation counting
Type: functional
pEC50: −log10 of the molar value.
Recorded Endpoint: pEC50

Cc1cc(SCc2cn(-c3ccc(OC(F)(F)F)c(F)c3)nn2)ccc1OCC(=O)O | 8.85

(A) Cc1cc(SCc2cn(-c3ccc(C(F)(F)F)c(F)c3)nn2)ccc1OCC(=O)O
(B) Cc1cc(SCc2cn(-c3ccc(C(F)(F)F)cc3)nn2)ccc1OCC(=O)O
[in] Quick one: lower pEC50, A or B ? Kindly state the label of the option you pick.
[out] B
